Data credit: paper PMC10745768

- System: MDA-MB-231 cells
- measurement_protocol: MTT antiproliferative assay, MDA-MB-231
- Type: cell-based
- stated_conditions: Homo sapiens; MDA-MB-231, 10 μM, 72 h; read-out: Growth inhibition (%) ± SEM
- Procedure: The in vitro anticancer effects of the presented compounds were assessed using the standard MTT [3-(4,5-dimethylthiazol2-yl)-2,5-diphenyltetrazolium bromide] assay on the following human cancer cell lines: cervical (HeLa and SiHa), breast (MCF-7 and MDA-MB-231) and ovarian cancer (A2780). The selectivity of the tested compounds was determined on murine embryonal fibroblast cells (NIH/3T3). […] The IC50 values were calculated using sigmoid curve fitting. […]
recorded_endpoint: inhibition at 10 µM (%)
Give bare numbers, in %.

As a guide, the following entries are already answered.
compound | inhibition at 10 µM [%]
COC(=O)C1(C)CCCC2(C)C3CCC4(CN)CC3(CCC12)CC4O (stereo not drawn) [Compound 31] | 49.5
COC(=O)[C@]1(C)CCC[C@@]2(C)[C@@H]3CC[C@@]4(CN[C@H](C)c5cccc6ccccc56)C[C@]3(CC[C@@H]21)C[C@H]4O [Compound 28] | 88
COC(=O)[C@]1(C)CCC[C@@]2(C)[C@@H]3CC[C@@]4(CO)C[C@]3(CC[C@@H]21)C[C@H]4NCc1cccc2ccccc12 [Compound 15] | 31.3
COC(=O)[C@]1(C)CCC[C@@]2(C)[C@@H]3CC[C@@]4(CO)C[C@]3(CC[C@@H]21)C[C@H]4N[C@@H](C)c1cccc2ccccc12 [Compound 14] | 53.2
COC(=O)[C@]1(C)CCC[C@@]2(C)[C@@H]3CC[C@@]4(CO)C[C@]3(CC[C@@H]21)C[C@H]4N[C@H](C)c1ccc2ccccc2c1 [Compound 17] | 91.5

Now let's try a different one.
Query: Fill in inhibition at 10 µM for record COC(=O)[C@]1(C)CCC[C@@]2(C)[C@@H]3CC[C@@]4(CO)C[C@]3(CC[C@@H]21)C[C@H]4NCc1ccc(F)cc1 [Compound 9]
Reply: 58
